system: IGROV1 complex spheroids (HUVEC, MSC), viability % test/control; experiment: Anticancer human tumor IGROV1 cell line growth inhibition [GQUAD]; conditions: second compound 0.316 µM; first compound 0.0316 µM; stronger effect = lower value;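 also: spheroids exposed to compounds for 7 days before readout; 100% = DMSO vehicle control viability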
Dear colleague, classification is by viability, T/C, with ranges listed here: bucket 1 = under 30%, bucket 2 = from 30% up to 70%, bucket 3 = 70% and over

# count of solved cases: 2
CC(C)(O)C1CCC(Nc2ccc3ncc(-c4cccc(C(F)(F)F)c4)n3n2)CC1 (stereo unspecified) + CN(C)c1ccc(Nc2c3ccc(NC(=O)CCN4CCCC4)cc3nc3cc(NC(=O)CCN4CCCC4)ccc23)cc1 :: bucket 3
COc1ncnc(C2CC2)c1-c1ncc2cnn(Cc3ccc(-c4nc(C(F)(F)F)cn4C(C)C)cc3)c2n1 + Cc1[nH]c2ccc(F)cc2c1-c1nc2c3cccnc3c3ncccc3c2[nH]1 :: bucket 2

Data request: Class? Entry: O=c1[nH]cc(F)c(=O)[nH]1 + Cc1[nH]c2ccc(F)cc2c1-c1nc2c3cccnc3c3ncccc3c2[nH]1
Data returned: bucket 3

Data request: Class? Entry: CC1COCCN1c1cc(C2(O)CC3CCC(C2)O3)c2cnn(-c3ccn[nH]3)c2n1 (stereo unspecified) + CN(C)c1ccc(Nc2c3ccc(NC(=O)CCN4CCCC4)cc3nc3cc(NC(=O)CCN4CCCC4)ccc23)cc1
Data returned: bucket 2

Data request: Class? Entry: C#Cc1c(F)ccc2cc(O)cc(-c3ncc4c(N5CC6CCC(C5)N6)nc(OCC56CCCN5CC(F)C6)nc4c3F)c12 (stereo unspecified) + Cc1[nH]c2ccc(F)cc2c1-c1nc2c3cccnc3c3ncccc3c2[nH]1
Data returned: bucket 2

Data request: Class? Entry: COc1ncnc(C2CC2)c1-c1ncc2cnn(Cc3ccc(-c4nc(C(F)(F)F)cn4C(C)C)cc3)c2n1 + CN(C)c1ccc(Nc2c3ccc(NC(=O)CCN4CCCC4)cc3nc3cc(NC(=O)CCN4CCCC4)ccc23)cc1
Data returned: bucket 3

Data request: Class? Entry: C=CC(=O)N1CCN(c2nc(=O)n(-c3c(C)ccnc3C(C)C)c3nc(-c4c(O)cccc4F)c(F)cc23)C(C)C1 (stereo unspecified) + Cc1cnc(CNC(=O)c2c(=O)c3ccc(N4CCCN(C)CC4)nc3n3c2sc2ccccc23)cn1
Data returned: bucket 1

Data request: Class? Entry: Cc1cccc(N(C)C(=O)C2C(O)CCN2c2nc(C)cc(C(F)(F)F)c2C#N)c1 (stereo unspecified) + Cc1cnc(CNC(=O)c2c(=O)c3ccc(N4CCCN(C)CC4)nc3n3c2sc2ccccc23)cn1
Data returned: bucket 1

Data request: Class? Entry: CC1COCCN1c1cc(-c2ccnn2C)c2ccnc(-c3ccn[nH]3)c2n1 (stereo unspecified) + Cc1cnc(CNC(=O)c2c(=O)c3ccc(N4CCCN(C)CC4)nc3n3c2sc2ccccc23)cn1
Data returned: bucket 1

Data request: Class? Entry: Cn1ncnc1[C@H]1c2n[nH]c(=O)c3cc(F)cc(c23)N[C@@H]1c1ccc(F)cc1 + CN(C)c1ccc(Nc2c3ccc(NC(=O)CCN4CCCC4)cc3nc3cc(NC(=O)CCN4CCCC4)ccc23)cc1
Data returned: bucket 2

Data request: Class? Entry: Nc1ccn(C2OC(CO)C(O)C2(F)F)c(=O)n1 (stereo unspecified) + Cc1[nH]c2ccc(F)cc2c1-c1nc2c3cccnc3c3ncccc3c2[nH]1
Data returned: bucket 1
